Reference source: patent US20240034757A1

Target: T1, CXCL1_HUMAN (human, UniProt P09341 35-107)
T1 sequence: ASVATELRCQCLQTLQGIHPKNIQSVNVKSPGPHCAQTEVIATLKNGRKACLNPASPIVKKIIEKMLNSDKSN
Assay: yeast surface display FACS re-test; note: test concentration or dose not given here
Below, each entry is listed with its recorded % cells over threshold fluorescence.
A number alone suffices; assume %.

Q) # input binder: P1162_IXORI (other) LNDEELFTVDYCGTNCTQQPNGSWTTCPGNCSCYHEDGKTDGFCLSTEYTDFTQFPNLTSEEMDAATPRPE ; wanted: its % cells over threshold fluorescence
A) 72

Q) # input binder: P1172_IXORI (other) LHEDEIFTVDYCGTNCTKQSNGSWTTCPGNCSCYHEDGKTDGFCLSTEYTDFTQFPNLTSEEMDAATPRPE ; wanted: its % cells over threshold fluorescence
A) 65

Q) # input binder: P1132_IXORI (other) LSDEDELFSVEYCGTNCTKQDTGSWTTCSGNCTCYHEDGKKVGLCLSTEYTDFTKFPKPTSEEIANARPLPKREKTLN ; wanted: its % cells over threshold fluorescence
A) 68

Q) # input binder: P1104_IXORI (other) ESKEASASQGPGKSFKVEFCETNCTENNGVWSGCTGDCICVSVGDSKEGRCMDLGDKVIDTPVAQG ; wanted: its % cells over threshold fluorescence
A) 65

Q) # input binder: P1168_IXORI (other) GQDTDGKEKSDEYELFTVEYCGTNCTQLENGSWTACTGKNGTCRCFHENDKKVGLCLSTEYTDFSEYPDPNSEEIKAASPLP ; wanted: its % cells over threshold fluorescence
A) 66
